- TARGET OR TEST SYSTEM: Microtubule-associated protein tau (Homo sapiens)
- TEST: qHTS for Inhibitors of Tau Fibril Formation, Thioflavin T Binding; also: nearly all actives have a fitted effect of over 55% in size
- ASSAY SETUP: recombinant tau K18 P301L (four-repeat tau fragment), heparin-induced fibrillization, ThT fluorescence; series mostly up to 57.4 µM
In all, about 270,000 compounds went through this assay and about 5,800 (2.1%) were called active. Not shown: some 16% with an inconclusive outcome. Calls follow the shape of the dose curve; as a rule, active = well fitted inhibition curve with a large enough effect; inconclusive = small, poorly fitted or top-dose-only effect; inactive = flat fitted curve, though single readings scatter. Many of the other results were omitted from the sample, so actives are more common in it than they were.
Outcome codes: active, inactive

[
  {
    "COMPOUND": "O=C(CSc1oc(-c2ccco2)nc1S(=O)(=O)c1ccccc1)c1ccc(Cl)cc1",
    "TARGET OR TEST SYSTEM": "Microtubule-associated protein tau (Homo sapiens)",
    "CAT": "inactive"
  },
  {
    "COMPOUND": "CCCc1nn2c(=O)cc(COC(=O)c3ccc(NC(=O)C(C)Oc4ccccc4)cc3)nc2s1 (stereo not drawn)",
    "TARGET OR TEST SYSTEM": "Microtubule-associated protein tau (Homo sapiens)",
    "CAT": "inactive"
  },
  {
    "COMPOUND": "CCN(CC)c1cc(NC2CCCCC2)c2c3c(onc13)-c1ccccc1C2=O",
    "TARGET OR TEST SYSTEM": "Microtubule-associated protein tau (Homo sapiens)",
    "CAT": "active"
  },
  {
    "COMPOUND": "CCOC(=O)CC1C(=O)NCCN1c1nc2c(C)cccn2c(=O)c1/C=C1\\SC(=S)N(C(C)CC)C1=O (stereo not drawn)",
    "TARGET OR TEST SYSTEM": "Microtubule-associated protein tau (Homo sapiens)",
    "CAT": "active"
  },
  {
    "COMPOUND": "O=C(NCCCc1ccccc1)c1ccc2c(c1)sc1nc(-c3ccc(F)cc3)cn12",
    "TARGET OR TEST SYSTEM": "Microtubule-associated protein tau (Homo sapiens)",
    "CAT": "inactive"
  },
  {
    "COMPOUND": "NNc1nc2c(Cl)cccc2s1",
    "TARGET OR TEST SYSTEM": "Microtubule-associated protein tau (Homo sapiens)",
    "CAT": "active"
  },
  {
    "COMPOUND": "CC(=O)NCCC(=O)Nc1cc(S(=O)(=O)N2CCOCC2)ccc1N1CCOCC1",
    "TARGET OR TEST SYSTEM": "Microtubule-associated protein tau (Homo sapiens)",
    "CAT": "inactive"
  },
  {
    "COMPOUND": "Cc1cc(C)cc(NC(=O)CCCc2nc(-c3ccccc3Cl)no2)c1",
    "TARGET OR TEST SYSTEM": "Microtubule-associated protein tau (Homo sapiens)",
    "CAT": "inactive"
  },
  {
    "COMPOUND": "O=C(CCS(=O)(=O)c1ccccc1)N(Cc1cccnc1)c1nc2c(F)cccc2s1",
    "TARGET OR TEST SYSTEM": "Microtubule-associated protein tau (Homo sapiens)",
    "CAT": "inactive"
  },
  {
    "COMPOUND": "O=C(c1ccc(Cl)cc1)c1ccc(OCC(O)CN2CCCCC2)cc1 (stereo not drawn)",
    "TARGET OR TEST SYSTEM": "Microtubule-associated protein tau (Homo sapiens)",
    "CAT": "inactive"
  },
  {
    "COMPOUND": "N#C/C(=C/c1ccc(N2CCCCC2)o1)C(=O)NCCc1c[nH]c2ccccc12",
    "TARGET OR TEST SYSTEM": "Microtubule-associated protein tau (Homo sapiens)",
    "CAT": "active"
  },
  {
    "COMPOUND": "COc1ccccc1OCCNc1cc(N2CCOCC2)ccc1[N+](=O)[O-]",
    "TARGET OR TEST SYSTEM": "Microtubule-associated protein tau (Homo sapiens)",
    "CAT": "active"
  },
  {
    "COMPOUND": "COc1ccc(N=Cc2c(O)[nH]c3ccccc23)cc1OC",
    "TARGET OR TEST SYSTEM": "Microtubule-associated protein tau (Homo sapiens)",
    "CAT": "active"
  },
  {
    "COMPOUND": "O=C(NCC(c1ccco1)S(=O)(=O)c1cccs1)c1ccc(F)cc1 (stereo not drawn)",
    "TARGET OR TEST SYSTEM": "Microtubule-associated protein tau (Homo sapiens)",
    "CAT": "inactive"
  },
  {
    "COMPOUND": "CN(C)CCCN(C(=O)COc1ccccc1)c1nc2c(Cl)cccc2s1",
    "TARGET OR TEST SYSTEM": "Microtubule-associated protein tau (Homo sapiens)",
    "CAT": "inactive"
  },
  {
    "COMPOUND": "CCc1ccc(NC(=O)c2cc3c(=O)n(Cc4cccnc4)ccc3nc2C)cc1",
    "TARGET OR TEST SYSTEM": "Microtubule-associated protein tau (Homo sapiens)",
    "CAT": "inactive"
  },
  {
    "COMPOUND": "Nc1nc(-c2sc3nc4c(cc3c2N)CCCC4)nc(N2CCOCC2)n1",
    "TARGET OR TEST SYSTEM": "Microtubule-associated protein tau (Homo sapiens)",
    "CAT": "active"
  },
  {
    "COMPOUND": "COC/C=C/C1=CC2=CC(=O)C(C)(OC(=O)CCC(=O)OC)C(=O)C2=CO1 (stereo not drawn)",
    "TARGET OR TEST SYSTEM": "Microtubule-associated protein tau (Homo sapiens)",
    "CAT": "active"
  },
  {
    "COMPOUND": "O=C(NC1(C(F)(F)F)N=C(c2ccccc2)N(C2CCCCC2)C1=O)c1ccccc1F (stereo not drawn)",
    "TARGET OR TEST SYSTEM": "Microtubule-associated protein tau (Homo sapiens)",
    "CAT": "inactive"
  },
  {
    "COMPOUND": "COCCNC(=S)Nc1cc(S(=O)(=O)N2CCOCC2)ccc1N1CCCCC1",
    "TARGET OR TEST SYSTEM": "Microtubule-associated protein tau (Homo sapiens)",
    "CAT": "active"
  },
  {
    "COMPOUND": "CCOC(=O)c1c(NC(=O)c2cccs2)sc(C)c1C",
    "TARGET OR TEST SYSTEM": "Microtubule-associated protein tau (Homo sapiens)",
    "CAT": "inactive"
  },
  {
    "COMPOUND": "Cc1cc(Oc2ccccc2)nc(N2CCOCC2)n1",
    "TARGET OR TEST SYSTEM": "Microtubule-associated protein tau (Homo sapiens)",
    "CAT": "inactive"
  },
  {
    "COMPOUND": "COc1cccc2c1cc1c(=O)n(CC(=O)N3CCN(c4cccc(Cl)c4)CC3)nc(C)n12",
    "TARGET OR TEST SYSTEM": "Microtubule-associated protein tau (Homo sapiens)",
    "CAT": "inactive"
  },
  {
    "COMPOUND": "O=[N+]([O-])c1ccc(N2CCN(S(=O)(=O)c3ccc4ccccc4c3)CC2)cc1NCc1ccco1",
    "TARGET OR TEST SYSTEM": "Microtubule-associated protein tau (Homo sapiens)",
    "CAT": "inactive"
  },
  {
    "COMPOUND": "CCCCNC(=S)NNC(=O)c1cc(C)on1",
    "TARGET OR TEST SYSTEM": "Microtubule-associated protein tau (Homo sapiens)",
    "CAT": "inactive"
  },
  {
    "COMPOUND": "COc1cccc(-c2cc(C(=O)Nc3ccc(C)cc3)[nH]n2)c1",
    "TARGET OR TEST SYSTEM": "Microtubule-associated protein tau (Homo sapiens)",
    "CAT": "inactive"
  },
  {
    "COMPOUND": "O=C(NCCc1c[nH]c2ccccc12)C(=O)NCC1CCCO1 (stereo not drawn)",
    "TARGET OR TEST SYSTEM": "Microtubule-associated protein tau (Homo sapiens)",
    "CAT": "inactive"
  },
  {
    "COMPOUND": "Nc1ccc(N=Nc2ccccc2Cl)c(N)n1",
    "TARGET OR TEST SYSTEM": "Microtubule-associated protein tau (Homo sapiens)",
    "CAT": "active"
  },
  {
    "COMPOUND": "Cc1cccn2c(=O)c(/C=C3\\SC(=S)N(CC(C)C)C3=O)c(NCCCOC(C)C)nc12",
    "TARGET OR TEST SYSTEM": "Microtubule-associated protein tau (Homo sapiens)",
    "CAT": "inactive"
  },
  {
    "COMPOUND": "CC1=C(c2ccc(C)c(C)c2)S(=O)(=O)NC1=NCc1ccccc1Cl",
    "TARGET OR TEST SYSTEM": "Microtubule-associated protein tau (Homo sapiens)",
    "CAT": "inactive"
  },
  {
    "COMPOUND": "Cc1c(Cl)cccc1-c1ccc(CNCCCSc2nnnn2C)o1",
    "TARGET OR TEST SYSTEM": "Microtubule-associated protein tau (Homo sapiens)",
    "CAT": "inactive"
  },
  {
    "COMPOUND": "COc1cc(NC(=O)CSc2nc3nc(C)c(Cc4ccc(C)cc4)c(C)n3n2)cc(OC)c1OC",
    "TARGET OR TEST SYSTEM": "Microtubule-associated protein tau (Homo sapiens)",
    "CAT": "inactive"
  },
  {
    "COMPOUND": "Cc1c(/C=N/N2C(=O)C3C4C=CC(C4)C3C2=O)c2ccccc2n1C (stereo not drawn)",
    "TARGET OR TEST SYSTEM": "Microtubule-associated protein tau (Homo sapiens)",
    "CAT": "inactive"
  },
  {
    "COMPOUND": "CC(=O)N/C(=C/c1ccc(Cl)cc1)C(=O)NCCc1c[nH]c2ccccc12",
    "TARGET OR TEST SYSTEM": "Microtubule-associated protein tau (Homo sapiens)",
    "CAT": "inactive"
  },
  {
    "COMPOUND": "Cc1c(/C=N\\NC(=O)c2cc3ccccc3o2)c2ccccc2n1C",
    "TARGET OR TEST SYSTEM": "Microtubule-associated protein tau (Homo sapiens)",
    "CAT": "active"
  },
  {
    "COMPOUND": "COc1ccc(-c2cc(C3CCN(c4ncccc4[N+](=O)[O-])CC3)[nH]n2)cc1",
    "TARGET OR TEST SYSTEM": "Microtubule-associated protein tau (Homo sapiens)",
    "CAT": "active"
  },
  {
    "COMPOUND": "CCOC(=O)CNC(=O)c1cc2c(=O)n3cccc(C)c3nc2s1",
    "TARGET OR TEST SYSTEM": "Microtubule-associated protein tau (Homo sapiens)",
    "CAT": "inactive"
  },
  {
    "COMPOUND": "c1ccc(CNc2ncnc3[nH]ncc23)cc1",
    "TARGET OR TEST SYSTEM": "Microtubule-associated protein tau (Homo sapiens)",
    "CAT": "inactive"
  },
  {
    "COMPOUND": "COc1ccccc1OCCNC(=O)c1cc([N+](=O)[O-])cc([N+](=O)[O-])c1",
    "TARGET OR TEST SYSTEM": "Microtubule-associated protein tau (Homo sapiens)",
    "CAT": "inactive"
  },
  {
    "COMPOUND": "O=C(COC(=O)Cc1ccc(F)cc1)Nc1cc(S(=O)(=O)N2CCOCC2)ccc1N1CCCC1",
    "TARGET OR TEST SYSTEM": "Microtubule-associated protein tau (Homo sapiens)",
    "CAT": "inactive"
  },
  {
    "COMPOUND": "COc1ccc(CCNc2nc(-c3ccc(Cl)cc3)cc(C(F)(F)F)n2)cc1OC",
    "TARGET OR TEST SYSTEM": "Microtubule-associated protein tau (Homo sapiens)",
    "CAT": "inactive"
  },
  {
    "COMPOUND": "O=C(c1ccccc1)c1ccc(OCC(O)CN2CCCC2)cc1 (stereo not drawn)",
    "TARGET OR TEST SYSTEM": "Microtubule-associated protein tau (Homo sapiens)",
    "CAT": "inactive"
  },
  {
    "COMPOUND": "CCCCNC(=O)Nc1c(C)cc(SC#N)cc1C",
    "TARGET OR TEST SYSTEM": "Microtubule-associated protein tau (Homo sapiens)",
    "CAT": "active"
  }
]
